These measurements were taken from patent US20210087281A1.

- Tested On: T1, human MET-Fc (R&D Systems) (human, UniProt P08581 25-932)
- T1 construct: extracellular domain; bought chimeric protein; also called hMET; not shown: Fc portion of human IgG1
- T1 sequence (P08581 25-932): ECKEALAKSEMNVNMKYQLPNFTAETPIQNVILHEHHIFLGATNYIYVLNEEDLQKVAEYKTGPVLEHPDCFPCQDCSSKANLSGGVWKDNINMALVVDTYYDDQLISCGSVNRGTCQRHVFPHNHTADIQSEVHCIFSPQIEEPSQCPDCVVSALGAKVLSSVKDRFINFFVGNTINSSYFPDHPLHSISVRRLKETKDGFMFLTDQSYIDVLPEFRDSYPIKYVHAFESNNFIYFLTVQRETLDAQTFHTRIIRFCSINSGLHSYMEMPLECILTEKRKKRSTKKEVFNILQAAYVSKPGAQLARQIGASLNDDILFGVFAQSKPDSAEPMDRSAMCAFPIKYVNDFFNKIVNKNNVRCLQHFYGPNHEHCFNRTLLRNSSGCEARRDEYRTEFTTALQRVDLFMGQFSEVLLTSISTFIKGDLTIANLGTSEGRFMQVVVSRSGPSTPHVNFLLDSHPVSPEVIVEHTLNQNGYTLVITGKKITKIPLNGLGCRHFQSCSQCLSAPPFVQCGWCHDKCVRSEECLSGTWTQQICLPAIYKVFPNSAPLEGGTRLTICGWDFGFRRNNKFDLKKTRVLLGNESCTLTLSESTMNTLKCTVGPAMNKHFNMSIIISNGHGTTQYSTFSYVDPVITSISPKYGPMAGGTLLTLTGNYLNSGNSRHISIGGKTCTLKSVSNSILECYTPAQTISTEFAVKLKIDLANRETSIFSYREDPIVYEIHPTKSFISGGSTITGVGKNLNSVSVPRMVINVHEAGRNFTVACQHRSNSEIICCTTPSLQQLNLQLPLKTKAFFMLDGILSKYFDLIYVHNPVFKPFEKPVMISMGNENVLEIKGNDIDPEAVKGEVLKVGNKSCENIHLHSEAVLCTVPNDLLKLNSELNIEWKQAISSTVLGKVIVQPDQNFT
- Assay Details: competition ELISA, hMET-Fc in solid phase, competitor 0.3 nM biotinylated hHGF
Observable: log10 IC50 (log10 of the value in nM)
Units before log transform: nM; reported quantity: IC50; transform: log10.

GET /values?readout=log10 IC50&item= 71A3 chimeric llama-human IgG1 mAb (antibody, V domains shown, llama VH on human IgG1 CH1-CH2-CH3, llama VL on human lambda CL) VH: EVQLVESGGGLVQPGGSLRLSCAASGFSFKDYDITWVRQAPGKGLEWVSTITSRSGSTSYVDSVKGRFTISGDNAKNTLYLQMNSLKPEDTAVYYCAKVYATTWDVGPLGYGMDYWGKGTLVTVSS VL: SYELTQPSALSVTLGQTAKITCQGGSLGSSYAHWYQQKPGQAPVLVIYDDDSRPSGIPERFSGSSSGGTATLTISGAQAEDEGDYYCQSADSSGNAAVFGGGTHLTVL
-0.29

Name the reported log10 IC50 value associated with the binder 76G7 chimeric llama-human IgG1 mAb (antibody, V domains shown, llama VH on human IgG1 CH1-CH2-CH3, llama VL on human lambda CL) VH: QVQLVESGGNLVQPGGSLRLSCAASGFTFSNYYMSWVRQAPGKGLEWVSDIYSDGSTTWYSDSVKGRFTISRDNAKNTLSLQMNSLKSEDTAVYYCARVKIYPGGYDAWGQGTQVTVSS VL: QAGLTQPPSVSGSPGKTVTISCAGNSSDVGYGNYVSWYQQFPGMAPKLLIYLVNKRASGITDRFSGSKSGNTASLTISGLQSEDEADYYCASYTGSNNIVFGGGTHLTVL
0.17

State the recorded log10 IC50 for this entry: 74C8 chimeric llama-human IgG1 mAb (antibody, V domains shown, llama VH on human IgG1 CH1-CH2-CH3, llama VL on human lambda CL) VH: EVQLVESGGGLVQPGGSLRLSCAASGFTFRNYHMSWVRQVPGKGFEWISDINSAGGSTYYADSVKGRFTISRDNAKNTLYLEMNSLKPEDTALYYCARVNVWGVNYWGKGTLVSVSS VL: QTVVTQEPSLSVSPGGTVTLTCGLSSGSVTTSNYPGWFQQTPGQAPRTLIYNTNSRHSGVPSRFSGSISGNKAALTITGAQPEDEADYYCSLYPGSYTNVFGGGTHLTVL
-0.37

What log10 IC50 value was documented for this binder, 71G12 chimeric llama-human IgG1 mAb (antibody, V domains shown, llama VH on human IgG1 CH1-CH2-CH3, llama VL on human kappa CL) VH: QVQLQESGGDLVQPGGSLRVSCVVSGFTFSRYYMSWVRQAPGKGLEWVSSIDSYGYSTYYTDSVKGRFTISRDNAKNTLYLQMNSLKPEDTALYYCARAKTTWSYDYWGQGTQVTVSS VL: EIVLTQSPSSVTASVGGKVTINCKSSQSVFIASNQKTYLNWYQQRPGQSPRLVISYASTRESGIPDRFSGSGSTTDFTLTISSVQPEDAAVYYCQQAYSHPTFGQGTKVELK ?
0.59

Reported log10 IC50 for 71D4 chimeric llama-human IgG1 mAb (antibody, V domains shown, llama VH on human IgG1 CH1-CH2-CH3, llama VL on human lambda CL) VH: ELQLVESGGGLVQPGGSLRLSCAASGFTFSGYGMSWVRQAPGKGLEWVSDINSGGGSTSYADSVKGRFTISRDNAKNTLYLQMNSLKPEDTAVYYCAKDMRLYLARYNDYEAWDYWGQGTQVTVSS VL: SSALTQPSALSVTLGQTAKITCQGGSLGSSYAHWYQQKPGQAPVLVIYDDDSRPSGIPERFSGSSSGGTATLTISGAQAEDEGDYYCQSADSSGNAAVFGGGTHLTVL : what is it?
-0.47
